Where do these numbers come from? They come from PubChem BioAssay.

biological target: Calmodulin-1 (Homo sapiens); assay: small molecules binding Ca-loaded calmodulin-1 – biochemical, small-molecule microarray, Cy5-labelled CALM1, plus calcium, artefact control for SMM control-protein annotation, profiling panel (AID 1112); conditions: Cy5-CALM1 binding fluorescence, higher = more signal;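 note: score merges spot fluorescence with signal to noise from triplicate slides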
attribute_measured: composite z-score
Numbers only.

Worked examples follow.
1. COCCCNC(=O)[C@@]1(Cc2ccccc2CN=[N+]=[N-])N=C(c2ccc(OCCCO)cc2)O[C@H]1c1ccccc1CN=[N+]=[N-] | 0.875
2. C=CCN1Cc2ccccc2[C@@H]2OC(c3ccc(OCCCO)cc3)=N[C@]2(CCS(=O)(=O)c2ccccc2)C1=O | -0.321
3. CC(C)N1CC=CC23O[C@@H]4C=CCOC(=O)[C@@H]4[C@H]2C(=O)N(CCCCCO)[C@@H]3C1=O (stereo partly drawn) | 0.395

Each of the following entries comes with a recorded value; kindly state composite z-score for each.
1. COc1ccc(CCNC(=O)[C@@]2(C)c3ccccc3C(=O)N(c3ccc(C)cn3)[C@H]2c2ccc(CO)cc2)cc1
2. COC(=O)[C@]1(Cc2ccccc2)N=C(c2ccc(OCCCO)cc2)O[C@@H]1c1ccccc1N=[N+]=[N-]
3. COCC(=C=CC[C@H](O)c1cccc(OCCO)c1)CCO
4. NCCCCCNC(=O)[C@H]1C[C@H]2C(=O)N3CCC[C@H]3C(=O)N2[C@H]1c1ccc(O)cc1
5. COCCCNC(=O)[C@@]1(Sc2ccc(C)cc2)CC(=O)N(Cc2ccccc2Cl)[C@@H]1c1ccc(CO)cc1

1. -0.141
2. 0.245
3. -0.487
4. 1.13
5. -0.184

====

test system: Noggin (protein binding on small-molecule microarray); experiment: small molecules binding Noggin protein – biochemical, 635/667 nm fluorescence, primary screen (AID 1095); conditions: 635 nm fluorescence, higher = more signal;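 note: score merges 667 nm feature fluorescence with signal to noise over triplicate slides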
Assignment: determine reported composite z-score for the given molecules.
Give bare numbers.

Worked examples follow.
1. Cc1ccc(S(=O)(=O)N2C[C@@H](C(=O)O)[C@H](Sc3ccccc3)C[C@H]2c2ccccc2)cc1 | 0.228
2. CCOC(=O)C[C@H]1[C@H](OC(=O)c2ccc(C(=O)c3ccccc3)cc2)[C@@H](NC(=O)c2ccccc2)c2cc(OCCCO)ccc2N1C(=O)c1ccccc1 | 0.508

Each of the following entries comes with a recorded value; kindly state composite z-score for each.
1. Cc1ccc(S[C@]2(C(=O)O)CC(=O)N(Cc3ccccc3C(F)(F)F)[C@@H]2c2ccc(CO)cc2I)cc1
2. CCCCN1CC=CC23O[C@@H]4C=CCOC(=O)[C@@H]4[C@H]2C(=O)N(CCCCCCO)[C@@H]3C1=O (some centres undefined)

1. -0.571
2. -1.84

====

assay: small molecules captured by biotinylated probe aFST – biochemical, small-molecule microarray, fluorescence 635/667, stem cell growth factor project, primary screen (AID 1086); details: higher = more signal;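 note: score merges 667 nm fluorescence with signal-to-noise of each printed compound spot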
attribute_measured: composite z-score
Answers are plain numbers.

Worked examples follow.
1) CCCC=C(CCC)[C@@H](NC(=O)OCC(C)C)c1ccccc1 | 2.06
2) C=C(C(=O)CC[C@H](OC(C)=O)c1ccccc1OCCO)C(C)C | -0.327
3) COCCOC(=O)N1C(=O)[C@@]2(c3cc(C#CCCO)ccc31)[C@H](c1ccc(O)cc1)N1[C@H](c3ccccc3)[C@H](c3ccccc3)OC(=O)[C@H]1[C@@H]2C(=O)N1CCN(c2ncccn2)CC1 | 0.437
4) CS(=O)(=O)CCOC(=O)C1=CC(CCCO)=CC(c2ccc(CN3CCCC3)cc2)N(Cc2cccc(OC(F)(F)F)c2)C=C1C(=O)OCCS(C)(=O)=O (stereo unspecified) | 0.66
5) COc1ccc([Si](C)(C)[C@@H]2[C@@H](CC(=O)N3CCC[C@H]3CO)O[C@]3(C(=O)N(Cc4cccc(I)c4)c4ccccc43)[C@H]2C)cc1 | 0.453

// moving on: another record for composite z-score
For the compound COCCOC(=O)N1C(=O)[C@@]2(c3cc(C#CCCO)ccc31)[C@H](c1ccc(OCCO)cc1)N1[C@H](c3ccccc3)[C@H](c3ccccc3)OC(=O)[C@H]1[C@@H]2C(N)=O , what composite z-score is on record? 0.177
